System: erythroid progenitor cells (EPCs)
Assay: Fetal hemoglobin (HbF) ELISA in day 7 erythroid progenitor cells;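 note: for fetal hemoglobin induction normalized to vehicle-treated cells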
Assay type: cell-based, human
Experimental setup: Homo sapiens, Erythroid progenitor cell, HbF ELISA, day 7 EPCs, 5 days; read-out: EPC ELISA (pEC50 category) (converted)
Experimental endpoint: EC50

Solved cases (4 shown):
* CCc1c(C#N)c(SCc2ccc(N(C)S(C)(=O)=O)cc2)nc(N2CC[C@H](CNC(=O)CN)C2)c1C#N | 1000 to 31600 nM
* CCc1c(C#N)c(SC(C(N)=O)c2ccccc2)nc(N2CCC(N3C(=O)CNC3=O)CC2)c1C#N (stereo not shown) | 1000 to 31600 nM
* CCc1c(C#N)c(SCc2ccc(N(C)S(C)(=O)=O)cc2)nc(N2CCC(NC(=O)[C@H](C)N)CC2)c1C#N | < 316 nM
* CCc1c(C#N)c(SCc2ccc(N(C)C(C)=O)cc2)nc(N2CCCN(C)CC2)c1C#N | 1000 to 31600 nM

Prompt: Fill in: EC50 of CCc1c(C#N)c(S[C@@H](C(N)=O)c2ccc(Cl)cc2)nc(N2CC[C@H](O)C2)c1C#N is ___
Completion: 316 to 1000 nM

Prompt: Returns the measured EC50 for the input molecule. Input: CCc1c(C#N)c(SCc2ccc(C#N)cc2)nc(N2CCCN(C)CC2)c1C#N
Completion: > 31600 nM

Prompt: State the recorded EC50 for this entry: CCc1c(C#N)c(SC(C(N)=O)c2ccccc2)nc(N2CC[C@@](F)(CN)C2)c1C#N (stereo partly shown)
Completion: 1000 to 31600 nM
